A collection of compounds and their measured melting point
readout name: melting point (°C)

# compound, readout name, unit of measurement, result number
measured = [
    ("CC(C)Cc1ccc(C(C)C(=O)NCC(=O)Nc2ccc(O)cc2)cc1 (centres unmarked) [Compound 7a]", "melting point", "°C", 175.9),
    ("CC(C)Cc1ccc(C(C)C(=O)NCCCC(=O)O)cc1 (centres unmarked) [Compound 5d]", "melting point", "°C", 78.3),
    ("CSCC[C@H](NC(=O)C(C)c1ccc(CC(C)C)cc1)C(=O)Nc1ccc(O)cc1 (some centres unmarked) [Compound 7i]", "melting point", "°C", 190.8),
    ("CC(C)Cc1ccc(C(C)C(=O)N[C@@H](CC(C)C)C(=O)Nc2ccc(O)cc2)cc1 (some centres unmarked) [Compound 7g]", "melting point", "°C", 230.5),
    ("CC(C)Cc1ccc(C(C)C(=O)N[C@@H](Cc2ccccc2)C(=O)Nc2ccc(O)cc2)cc1 (some centres unmarked) [Compound 7e]", "melting point", "°C", 168.7),
]
